Attribution: the supplement of paper PMC7411054

- Tested on: A549-ACTB-RAB5A
- PROCEDURE_DETAILS: phenotypically active (imaging signature differs from DMSO and reproducible) at any of 0.3-9 uM (binary (1 = active, 0 = inactive)); higher = active
- SETUP_CONDITIONS: treatment time: 24 h
The reply should be one of these categories: 1 = active, -1 = inactive

Example entries and their recorded answers appear below.
1) CCOc1ccc2nc(S(N)(=O)=O)sc2c1 [ethoxzolamide] | -1
2) CNCC[C@H](Oc1cccc2ccccc12)c1cccs1 [duloxetine] | 1

Query block: # lookup: test call for C=C1C[C@@]23CCC4[C@@](C)(CCC[C@@]4(C)C(=O)O[C@@H]4O[C@H](CO)C(O)[C@H](O)C4O)C2CC[C@@]1(O[C@H]1O[C@H](CO)C(O)[C@H](O)[C@H]1O[C@@H]1O[C@H](CO)[C@@H](O)[C@H](O)[C@H]1O)C3 (stereo partly drawn) [Stevioside]
Result block: -1

Query block: # lookup: test call for Cc1cc(Nc2ncc3c(n2)N(C)C(=O)N(c2cc(NC(=O)c4cccc(C(F)(F)F)c4)ccc2C)C3)n(C)n1 [Pluripotin]
Result block: 1

Query block: # lookup: test call for COc1cc2c(cc1O)CC[C@@H]1[C@@H]2CC[C@]2(C)[C@@H](O)CC[C@@H]12 [2-methoxyestradiol]
Result block: 1

Query block: # lookup: test call for CO[C@@H]1[C@H](N(C)C(=O)c2ccccc2)C[C@H]2O[C@]1(C)n1c3ccccc3c3c4c(c5c6ccccc6n2c5c31)C(=O)NC4
Result block: 1

Query block: # lookup: test call for COc1ccnc(CS(=O)c2nc3cc(OC(F)F)ccc3[nH]2)c1OC (stereo not drawn) [pantoprazole]
Result block: -1

Query block: # lookup: test call for COC(=O)c1c(C)cc(OC(=O)c2c(C)cc(O)c(C=O)c2O)c(C)c1O [Atranorin]
Result block: -1

###

Below, each of the compounds is paired with its reported lowest phenotypically active concentration value.
- Test system: HepG2-TUBA1B-RELA
- PROCEDURE_DETAILS: lowest phenotypically active concentration; higher = less potent
- SETUP_CONDITIONS: treatment time: 24 h
Structures can show the parent of a compound that is named as a salt.
Dear colleague, please return just the value in µM, with no unit written.

Some compounds with recorded lowest phenotypically active concentration:
1. CCN1CCN(C(c2cccnc2)c2cc(Cl)c3cccnc3c2O)CC1 (stereo not drawn) | 9
2. C[C@H]1[C@H]2CC[C@H]3[C@@H]4CC=C5C[C@@H](N(C)C)CC[C@]5(C)[C@H]4CC[C@]23CN1C [Conessine] | 3
3. COc1cc2ncnc(Nc3ccc(O)c(Br)c3)c2cc1OC | 3
4. c1ccc2c(c1)Cc1c(Nc3ccc4c(c3)OCCO4)n[nH]c1-2 | 3
5. Cc1noc(C)c1-c1ccc2c(c1)nc(CCc1ccc(OCCCN(C)C)cc1)n2CCN1CCOCC1 | 9
6. C[C@@H]1CN(Cc2ccc(F)cc2)[C@@H](C)CN1C(=O)c1cc2c(C(=O)C(=O)N(C)C)cn(C)c2cc1Cl [SCIO 469 hydrochloride] | 9

Attention now turns to another entry.
Query block: Answer with the recorded lowest phenotypically active concentration of C=CC(=O)Nc1cccc(Nc2nc(Nc3ccc(Oc4ccnc(C(=O)NC)c4)cc3)ncc2F)c1 only.
Result block: 9

###

- Tested on: A549-TUBA1B-RELA
- PROCEDURE_DETAILS: phenotypically active (imaging signature differs from DMSO and reproducible) at any of 0.3-9 uM (binary (1 = active, 0 = inactive)); higher = active
- SETUP_CONDITIONS: treatment time: 24 h
RECORDED_ENDPOINT: phenotypically active

Query block: Answer with the recorded phenotypically active of COc1c(C=O)c(O)cc2c1C(=O)c1ccccc1C2=O only.
Result block: 0 (inactive)

Query block: Answer with the recorded phenotypically active of O=C(c1cccc(Cl)c1F)N1CCN(Cc2cccc(Nc3nccs3)n2)CC1 only.
Result block: 1 (active)

Query block: Answer with the recorded phenotypically active of O=C(/C=C/c1ccc(O)cc1)c1ccc(O)cc1O only.
Result block: 1 (active)
